- system: HLA-A*11:01 (human)
- method_summary: REVEAL MHC-peptide binding assay, recombinant HLA-A*11:01
- test_conditions: remark: other sources report otherwise
recorded_endpoint: In Vitro Score (% of positive control peptide)
The reply should be a number, written without any unit.

Example results:
binder	numeric_value
IFWVKRGLK [… (SEQ ID NO: 62)]	61.1
IIFWVSRGR [… (SEQ ID NO: 26)]	68.9

Query: What value of measured In Vitro Score (% of positive control peptide) is listed for WVQRGRKKL [… (SEQ ID NO: 56)] ?
Result: 12.8

Query: Any idea what its In Vitro Score (% of positive control peptide) is? The binder is IIFWVQRGA [… (SEQ ID NO: 81)]
Result: 56.5
